Data credit: patent US20260184782A1

Target: T1, recombinant human TIGIT (human, UniProt Q495A1 22-141, limits assumed)
T1 construct: recombinant human TIGIT used in Carterra SPR; also called hTIGIT
T1 sequence (looked up): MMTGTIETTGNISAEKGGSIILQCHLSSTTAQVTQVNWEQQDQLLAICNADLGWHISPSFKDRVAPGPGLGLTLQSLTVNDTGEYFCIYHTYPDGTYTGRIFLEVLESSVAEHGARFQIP
Assay: SPR Carterra, average
Measure: koff
The reply must contain the numeric value and, after it, the unit.

Past entries and their recorded results:
{"Binder": "TIGIT-SC125 (Fc fusion, VHH-Fc fusion in assay) VHH: EVQLVESGGGLVQPGGSLRLSCAASGFTLSGNWMGWFRQAPGKEREMVAAIDWSGGSALYADSVKGRFTISADNSKNTAYLQMNSLKPEDTAVYYCAKDALSNSARFDHWGQGTLVTVSS", "koff": "0.00807 s⁻¹"}
{"Binder": "TIGIT-SC102 (Fc fusion, VHH-Fc fusion in assay) VHH: EVQLVESGGGLVQPGGSLRLSCAASGSTFSKHHAMGWFRQAPGKEREFVAAIRWSGGNTYYADSVKGRFTISADNSKNTAYLQMNSLKPEDTAVYYCARWYSSSGDYYYMDVWGQGTLVTVSS", "koff": "0.00146 s⁻¹"}

Find the recorded koff belonging to TIGIT-SC57 (Fc fusion, VHH-Fc fusion in assay) VHH: EVQLVESGGGLVQPGGSLRLSCAASGNTFSGGFMGWFRQAPGKEREWVASVLRGGYTWYADSVKGRFTISADNSKNTAYLQMNSLKPEDTAVYYCTTYRGWGQGTLVTVSS and report it.
0.00511 s⁻¹

Find the recorded koff belonging to TIGIT-SC140 (Fc fusion, VHH-Fc fusion in assay) VHH: EVQLVESGGGLVQPGGSLRLSCAASGNTFSGGFTFDRSWMGWFRQAPGKEREWVASVLRGGYTWYADSVKGRFTISADNSKNTAYLQMNSLKPEDTAVYYCAGDRYYDFWSGPNSGDYWGQGTLVTVSS and report it.
0.00474 s⁻¹
